The measurements presented in this section are drawn from patent US20130266566A1.

For each entry below, report its HT-1080 Exo PAI-1 (IC50 in nM) mouse value.
- System Name: T1, mouse PAI-1 (mouse, UniProt P22777 24-401)
- T1 sequence: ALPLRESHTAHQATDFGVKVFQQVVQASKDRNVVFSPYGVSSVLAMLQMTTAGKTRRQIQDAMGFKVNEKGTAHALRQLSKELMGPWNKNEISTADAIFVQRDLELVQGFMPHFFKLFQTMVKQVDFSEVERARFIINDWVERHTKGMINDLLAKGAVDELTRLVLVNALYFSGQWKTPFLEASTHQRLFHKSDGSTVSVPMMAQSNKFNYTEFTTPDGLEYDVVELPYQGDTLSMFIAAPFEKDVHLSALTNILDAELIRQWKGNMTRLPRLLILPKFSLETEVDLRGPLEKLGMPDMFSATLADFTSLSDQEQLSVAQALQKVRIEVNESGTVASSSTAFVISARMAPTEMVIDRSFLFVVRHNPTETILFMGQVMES
- Method Description: cell-based or functional assay
One number for each entry, in nM.

# Binder, HT-1080 Exo PAI-1 (IC50 in nM) mouse
records = [
    ("Antibody 08 scFv (scFv) QVQLVQSGAEVKKPGSSVKVSCKASGGTFSSYAISWVRQAPGQGLEWMGGIIPTFGTANYAQKFQGRVTITADESTSTAYMELSSLRSEDTAVYYCARERRQWLEGHFDYWGRGTLVTVSSDIQMTQSPSTLSASVGDRVTITCRASEGIYHNLAWYQQKPGKAPKLLIYKASSLASGVPSRFSGSRSGTEFTLTISSLQPDDFATYYCQQYSNYPLTFGGGTKVEIK", 26.2),
    ("Antibody 20 scFv (scFv) QVQLQQSGAEVKKPGSSVKVSCKASGGTFSSYAISWVRQAPGQGLEWMGGIIPTFGTANYAQKFQGRVTITADESTSTAYMELSSLRSEDTAVYYCAREKRQWLEGHFDYWGRGTLVTVSSDIQMTQSPSTLSASVGDRVTITCRASEGIYHELAWYQQKPGKAPKLLIYRASSLASGVPSRFSGSRSGTEFTLTISSLQPDDFATYYCQQYSDYPLTFGGGTKVEIK", 18.1),
]

Inquiry: Find the measured HT-1080 Exo PAI-1 (IC50 in nM) mouse of Antibody 15 scFv (scFv) QVQLQQSGAEVKKPGSSVKVSCKASGGTFSSYAISWVRQAPGQGLEWMGGIIPTFGTANYAQKFQGRVTITADESTSTAYMELSGLRSEDTAVYYCAREKRQWLEGHFDYWGRGTPVTVSSDIQMAQSPSFLSASIGDRVTITCRASEGIYHNLAWYQQKPGKAPKLLIYRASSLASGAPSRFSGSGSGTDFTLTISSLQPDDFATYYCQQYSNYPLTFGGGTKLEIR and report it.
Reply text: 37
